SYSTEM TESTED: human MC1R (Homo sapiens, UniProt Q01726)
Construct: expressed in transfected cells; host or cells: HEK-293 cells stably expressing hMC1R and the GScAMP22F cAMP sensor
Sequence (Q01726 whole entry): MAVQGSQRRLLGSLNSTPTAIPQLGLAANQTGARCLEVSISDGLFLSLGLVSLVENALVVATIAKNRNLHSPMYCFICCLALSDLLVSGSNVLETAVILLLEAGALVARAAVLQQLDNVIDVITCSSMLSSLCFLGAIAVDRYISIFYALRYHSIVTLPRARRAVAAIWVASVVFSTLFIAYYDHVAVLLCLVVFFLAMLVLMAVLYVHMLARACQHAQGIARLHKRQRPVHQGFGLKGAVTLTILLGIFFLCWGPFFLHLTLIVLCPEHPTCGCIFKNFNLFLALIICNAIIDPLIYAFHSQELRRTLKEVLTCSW
EXPERIMENTAL DETAILS: split-luciferase cAMP sensor assay, agonist mode, hMC1R
Format: cell-based
PARTICULARS: MC4R versus MC1R
Positions of bridges follow the written chain, without caps; N, C: chain ends. Non-standard residues stand in square brackets, D forms with d. Residues, ends and D or L forms follow the SMILES beside them. Cit = NC(=O)NCCC[C@H](N)C(=O)O; Orn = NCCC[C@H](N)C(=O)O; Aib = CC(C)(N)C(=O)O
TEST READOUT: MC4R selectivity vs MC1R
Write no unit; give the number alone.

CC(=O)N[C@H]1CSSC[C@@H](C(N)=O)NC(=O)[C@H](Cc2c[nH]c3ccccc23)NC(=O)[C@H](CCCNC(=N)N)NC(=O)[C@@H](Cc2ccccc2)NC(=O)[C@H](CCCNC(N)=O)NC(=O)C(C)(C)NC1=O [CTX-1633, cyclo(Cys-Aib-Cit-D-Phe-Arg-Trp-Cys)] (Ac-C[Aib][Cit][dF]RWC-NH2; disulfide 1-7 (inferred))	942

// field: MC4R selectivity vs MC1R; key: CC(=O)N[C@@H](CCCNC(=N)N)C(=O)N[C@H]1CSSC[C@@H](C(N)=O)NC(=O)[C@H](Cc2ccccc2)NC(=O)[C@H](CCCNC(=N)N)NC(=O)[C@@H](Cc2ccccc2)NC(=O)[C@H](CCCN)NC(=O)C(C)(C)NC1=O [CTX-1602, Arg-cyclo(Cys-Aib-Orn-D-Phe-Arg-Phe-Cys)] (Ac-RC[Aib][Orn][dF]RFC-NH2; disulfide 2-8) ; value = 3.65
